# credit: the supplement of paper PMC10498489

Test system: HepG2 Srxn1-GFP reporter cells (+30 nM CDDO-Me)
Assay: Srxn1-GFP intensity median modified Z-score relative to plate median; higher = stronger NRF2 / oxidative stress reporter activation, active = hit call of the paper
Conditions: 10 µM; exposure time: 24h
Hit rate of the full screen: of about 2,300 compounds, about 330 (14%) showed activity. These entries were drawn from the full list.
MEASURED_ATTRIBUTE: Srxn1-GFP intensity median modified Z-score

Cc1cc(C)cc(-c2nnc(SCc3csc(Nc4ccccc4)n3)o2)c1	0.289 (inactive)
O=C(C=Cc1ccc(O)c(O)c1)OCCc1ccccc1	3.45 (active)

Moving on to another compound below.
Supply recorded Srxn1-GFP intensity median modified Z-score for CC[C@H]1OC(=O)C[C@@H](O)[C@H](C)[C@@H](O[C@@H]2O[C@H](C)[C@@H](O[C@H]3C[C@@](C)(O)[C@@H](O)[C@H](C)O3)[C@H](N(C)C)[C@H]2O)[C@@H](CC=O)CC(C)C(=O)/C=C/C(C)=C/C1CO[C@@H]1O[C@H](C)[C@@H](O)[C@@H](OC)[C@H]1OC (stereo partly drawn) here.
-0.617 (inactive)

* * *

Test system: HepG2 Srxn1-GFP reporter cells (+30 nM CDDO-Me)
Test: Srxn1-GFP intensity median modified Z-score relative to plate median; higher = stronger NRF2 / oxidative stress reporter activation, active = hit call of the paper
Conditions: 10 µM; exposure time: 24h
In all, about 2,300 compounds went through this assay and about 330 (14%) showed activity. A selection follows.
Reported Srxn1-GFP intensity median modified Z-score values follow for various compounds
// return a plain number; no unit text

// solved cases for Srxn1-GFP intensity median modified Z-score follow
Cc1ccc(Cl)c2cccnc12	1.45
Cc1ccc2c(Br)cc(Br)c(OC(=O)c3ccccc3)c2n1	2.44
O=C(O)/C=C/C(=O)O	-0.338
CCC(C(=O)O)c1ccccc1 (configuration not stated)	-0.651
O=C(O)CCCN1C(=O)c2cccc3cccc(c23)C1=O	-0.0255

Supply recorded Srxn1-GFP intensity median modified Z-score for CCCCC/C=C/CCC(=O)N[C@H]1[C@H](Oc2c3cc4cc2Oc2ccc(cc2Cl)[C@@H](O[C@@H]2O[C@H](CO)[C@@H](O)[C@H](O)[C@H]2NC(C)=O)c2[nH]c(O)c(c5ccc(O)c(c5)c5c(OC6O[C@H](CO)[C@@H](O)[C@H](O)[C@@H]6O)cc(O)cc5c(=C(O)O)[nH]c2O)NC(=O)[C@@H]4NC(=O)[C@H]2NC(=O)C(Cc4ccc(c(Cl)c4)O3)NC(=O)[C@H](N)c3ccc(O)c(c3)Oc3cc(O)cc2c3)O[C@H](CO)[C@@H](O)[C@@H]1O (some centres not stated) here.
-0.162

Supply recorded Srxn1-GFP intensity median modified Z-score for O=C(O)CN1C(=O)c2cccc3cccc(c23)C1=O here.
2.2

Supply recorded Srxn1-GFP intensity median modified Z-score for N=c1[nH]cnc2[nH]cnc12 here.
-0.183

Supply recorded Srxn1-GFP intensity median modified Z-score for CCCCCCCCCCOc1cc2c(=O)c(C(=O)OCC)c[nH]c2cc1OCC here.
0

* * *

Reported Srxn1-GFP intensity median modified Z-score values follow for various compounds
Tested on: HepG2 Srxn1-GFP reporter cells (+30 nM CDDO-Me)
Experiment: Srxn1-GFP intensity median modified Z-score relative to plate median; higher = stronger NRF2 / oxidative stress reporter activation, active = hit call of the paper
Settings: 10 µM; exposure time: 24h
Among all 2,300 compounds or so, about 330 (14%) showed activity. These entries were drawn from the full list.

// solved cases for Srxn1-GFP intensity median modified Z-score follow
C=C[C@](C)(O)CC[C@@H]1[C@@]2(C)CCCC(C)(C)[C@@H]2CC[C@]1(C)O	2.3 (active)
Oc1c(C2=CC[C@@H](c3ccc(Cl)cc3)CC2)c(O)c2ccccc2c1O	37.9 (active)
CCCCCN(C)CCC(O)(P(=O)(O)O)P(=O)(O)O	-0.118 (inactive)
Cc1c[nH]c(=NC(=O)C2C(=O)c3ccccc3S(=O)(=O)N2C)s1 (stereo not drawn)	-0.367 (inactive)
N#C/C(=C\c1ccc(SC(F)(F)F)cc1)c1nnc2n1CCCCC2	2.21 (active)

Supply recorded Srxn1-GFP intensity median modified Z-score for CCCCCCCCCCC[C@@H](C[C@H]1OC(=O)C1CCCCCC)OC(=O)C(CC(C)C)NC=O (stereo partly drawn) here.
-0.557 (inactive)

Supply recorded Srxn1-GFP intensity median modified Z-score for CC(=O)S[C@@H]1C=C2CC(=O)CC[C@]2(C)[C@H]2CC[C@@]3(C)[C@@H](CC[C@@]34CCC(=O)O4)C12 (stereo partly drawn) here.
-0.784 (inactive)

Supply recorded Srxn1-GFP intensity median modified Z-score for CCO[C@@]1(C)C[C@H]1NC(=O)N[C@@H]1C[C@@H]1C(F)F here.
0.985 (inactive)

Supply recorded Srxn1-GFP intensity median modified Z-score for O=c1ccc2ccccc2o1 here.
-0.351 (inactive)

* * *

Tested on: HepG2 Srxn1-GFP reporter cells (+30 nM CDDO-Me)
Test: Srxn1-GFP intensity median modified Z-score relative to plate median; higher = stronger NRF2 / oxidative stress reporter activation, active = hit call of the paper
Conditions: 10 µM; exposure time: 24h
The campaign covered roughly 2,300 compounds. About 330 (14%) showed activity.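 How the source made its calls: active = median modified Z-score above 1.96; inactive = 1.96 or below.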 Not all results are given here.
Returns: one label drawn from yes for active, no for inactive

CC(C)(C)NCC(O)COc1cccc2c1CCCC2=O (stereo not given)	no
CN[C@H](CC(C)C)C(=O)NC1C(=O)N[C@@H](CC(N)=O)C(=O)N[C@H]2C(=O)Nc3c(O)[nH]c(c(O)[nH]c(=C(O)O)c4cc(O)cc(O)c4c4cc3ccc4O)[C@H](O)c3ccc(c(Cl)c3)Oc3cc2cc(c3O[C@@H]2OC(CO)[C@@H](O)[C@H](O)[C@H]2O[C@H]2C[C@](C)(N)[C@H](O)[C@H](C)O2)Oc2ccc(cc2Cl)[C@H]1O (stereo not given in full)	no
N=c1[nH]cnc(=Nc2ccc(Cl)cc2)[nH]1	no
CN1CCC[C@@H]1Cc1c[nH]c2ccc(CCS(=O)(=O)c3ccccc3)cc12	no

Could you now consider this next molecule?
Outcome logged for CC(C)(S)C(N)C(=O)O (stereo not given) in this assay:
no

* * *

Test system: HepG2 Srxn1-GFP reporter cells (+30 nM CDDO-Me)
Experiment: Srxn1-GFP intensity median modified Z-score relative to plate median; higher = stronger NRF2 / oxidative stress reporter activation, active = hit call of the paper
Conditions: 10 µM; exposure time: 24h
Screen size: about 2,300 compounds; about 330 (14%) showed activity.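 Rule for the calls: active = median modified Z-score above 1.96; inactive = 1.96 or below.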 A selection follows.
Returns: one label drawn from true = active, false = inactive

Below are worked cases with known answers.
Cc1noc(C)c1S(=O)(=O)N1CCN(C(=O)C2=COCCO2)CC1	false
CC(COc1ccccc1)N(CCCl)Cc1ccccc1 (stereo not given) [euspeclibcmpd203]	true
CC(C)COCC(CN(Cc1ccccc1)c1ccccc1)N1CCCC1 (stereo not given) [euspeclibcmpd972]	false
Oc1oc(O)c2c1C1CCC2O1 [euspeclibcmpd1748]	true

Could you now consider this next compound?
Outcome logged for COc1ccc2[nH]c3cc(Cl)ccc3c(=Nc3cc(CN4CCCC4)c(O)c(CN4CCCC4)c3)c2n1 [euspeclibcmpd1080] in this assay:
true

* * *

Test system: HepG2 Srxn1-GFP reporter cells (+30 nM CDDO-Me)
Test: Srxn1-GFP intensity median modified Z-score relative to plate median; higher = stronger NRF2 / oxidative stress reporter activation, active = hit call of the paper
Settings: 10 µM; exposure time: 24h
In all, about 2,300 compounds went through this assay and about 330 (14%) showed activity.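 The calls were made as follows: active = median modified Z-score above 1.96; inactive = 1.96 or below.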 A selection follows.
Returns: one label drawn from active, inactive

Below are worked cases with known answers.
N=c1c2ccccc2[nH]c2ccccc12	active
N=c1ccn2c(n1)O[C@@H]1[C@@H](O)[C@H](CO)O[C@@H]12	inactive
NC[C@@H]1O[C@H](O[C@@H]2[C@@H](CO)OC(O[C@@H]3[C@@H](O)[C@H](N)C[C@H](N)[C@H]3O[C@H]3O[C@H](CO)[C@@H](O)[C@H](O)[C@H]3N)[C@@H]2O)[C@H](N)[C@@H](O)[C@@H]1O (stereo partly specified)	inactive
N=c1c2c([nH]c3ccccc13)CCCC2	inactive

Outcome logged for NC(C=O)C(O)NNCc1ccc(O)c(O)c1O (stereo unspecified) in this assay:
inactive

Outcome logged for OC[C@H]1O[C@@H](O[C@H]2[C@H](O)[C@@H](O)[C@@H](O)O[C@@H]2CO)[C@H](O)[C@@H](O)[C@@H]1O in this assay:
inactive

* * *

System: HepG2 Srxn1-GFP reporter cells (+30 nM CDDO-Me)
Experiment: Srxn1-GFP intensity median modified Z-score relative to plate median; higher = stronger NRF2 / oxidative stress reporter activation, active = hit call of the paper
Settings: 10 µM; exposure time: 24h
In all, about 2,300 compounds went through this assay and about 330 (14%) showed activity.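 The calls were made as follows: active = median modified Z-score above 1.96; inactive = 1.96 or below.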 A selection follows.
Returns: one label drawn from yes (active), no (inactive)

O=C(O)C=C(CC(=O)O)C(=O)O	no

Outcome logged for CC1CCC2(C(=O)O)CCC3(C)C(=CCC4C5(C)CC(O)C(O)C(C)(CO)C5CCC43C)C2C1C (configuration not stated) in this assay:
no

Outcome logged for CC(=O)O[C@@]12CO[C@@H]1C[C@H](O)[C@@]1(C)C(=O)C(=O)C3C(C)[C@@H](OC(=O)[C@@H](O)[C@@H](NC(=O)OC(C)(C)C)c4ccccc4)C[C@@](O)([C@@H](OC(=O)c4ccccc4)C12)C3(C)C (some centres not stated) in this assay:
no

Outcome logged for CS(C)(=O)=O in this assay:
yes

Outcome logged for C[C@H]1c2cccc(O)c2C(=O)C2C(=O)[C@]3(O)C(=O)C(C(N)=O)C(=O)C(N(C)C)[C@@H]3[C@@H](O)[C@@H]21 (some centres not stated) in this assay:
no

Outcome logged for S=C1SCN(Cc2ccccc2)CN1Cc1ccccc1 in this assay:
yes

Outcome logged for CN1CCN(CC/C=C2\c3ccccc3Sc3ccc(S(=O)(=O)N(C)C)cc32)CC1 in this assay:
yes

Outcome logged for COC(=O)CC1C(C)(C)C(O)C2CC3=C4CC(O)OC(c5ccoc5)C4(C)CCC3C1(C)C2=O (configuration not stated) in this assay:
no
